Every entry's value here was drawn from ChEMBL document CHEMBL1201862.

System: MDA-MB-231
method: NCI tumour cell line growth inhibition, 48 h
Active and inactive are the calls of the source. Rule as the data show it: active = GI50 up to about 1.1 µM and inactive = higher.
Quick list: GI50 per entry.
readout-label: GI50

compound | result
N=C(N)N/N=C/c1cnn(C(=N)N)c1 | > 100 µM (inactive)
O=C1OC(c2ccc([N+](=O)[O-])cc2)=N/C1=C\c1ccc(Cl)cc1 | > 100 µM (inactive)
CC(C)[Si]1(C(C)C)OCC2OC(n3cnc4c(N)ncnc43)C(N)C2O[Si](C(C)C)(C(C)C)O1 (stereo not given) | 13.7 µM (inactive)
OCC1OC(N2CCN(C3OC(CO)C(O)C(O)C3O)CC2)C(O)C(O)C1O (stereo not given) | > 100 µM (inactive)
C=C1N(S(=O)(=O)c2ccc(C)cc2)C(=O)OCC12CCCC2 | > 100 µM (inactive)

====

System: PC-3
method: NCI tumour cell line growth inhibition, 48 h
Active and inactive are the calls of the source. No stated cut-off is given here; in the data, active = GI50 up to about 1.1 µM and inactive = higher.
Outcome codes: active, inactive

compound | cat
CC[C@@]1(O)C(=O)OCc2c1cc1n(c2=O)Cc2cc3cc(OC)ccc3nc2-1 | active
C[n+]1ccccc1/C1=c2\cc/c([nH]2)=C(\c2cccc[n+]2C)C2=N/C(=C(/c3cccc[n+]3C)C3C=CC(N3)/C(c3cccc[n+]3C)=C3/C=CC1=N3)C=C2 | inactive
CC(=O)c1c(C)cc2cccc(OC3OC(CO)C(O)C(O)C3O)c2c1O.CC1OC(O)C(O)C(O)C1O (stereo not drawn) | inactive
CC(C#N)NCc1ccc(C(C)NC(C)C#N)cc1 (stereo not drawn) | inactive
COc1cc(OC)nc(Nc2c(C#N)c3nc4ccccc4n3c3ccccc23)n1 | inactive
C=C1C(=O)O[C@H]2[C@@H]3O[C@@](C)(CC/C=C(\C)CCC[C@@H]2C)[C@H](O)C[C@@H]13 | inactive
Cc1ccccc1OC(C)C(=O)NN1C(=O)CC(=O)N(c2ccc(Cl)cc2)C1=S (stereo not drawn) | inactive
COC(=O)C1=C(O)C(C(=O)OC)[C@]2(O)[C@H](C(=O)OC)[C@H]1C[C@@H](c1ccc(C(F)(F)F)cc1)[C@H]2C(=O)OC (stereo partly drawn) | inactive

====

Tested on: MDA-MB-231
method: NCI tumour cell line growth inhibition, 48 h
Activity calls are given as the source filed them. Cut-off read from the data, not from the text of the source: active = GI50 up to about 1.1 µM and inactive = higher.
readout-label: GI50

compound | test-system | result
c1ccc2c(c1)CCN1CCc3c([nH]c4ccccc34)C21 (stereo not given) | MDA-MB-231 | 35.3 µM (inactive)
CC(C)(C)CC(N)=O | MDA-MB-231 | > 100 µM (inactive)
C[C@H]1COC2=C1C(=O)C(=O)c1c2ccc2c1CCCC2(C)C [CRYPTOTANSHINONE] | MDA-MB-231 | 12 µM (inactive)
O=[N+]([O-])c1cccc(/N=C2\c3ccccc3CN2c2cccc([N+](=O)[O-])c2)c1 | MDA-MB-231 | > 100 µM (inactive)
C/C(=C/CC[C@]1(CO)CC[C@]2(C)[C@H](CC[C@@H]3[C@@]4(C)CC[C@H](OC5OC(CO)C(O)C(O)C5OC5OC(CO)C(O)C(O)C5O)C(C)(C)[C@@H]4CC[C@]32C)[C@H]1O)CO (stereo not given in full) | MDA-MB-231 | > 100 µM (inactive)

====

Test system: HOP-62
method: NCI tumour cell line growth inhibition, 48 h
Active and inactive are the calls of the source. Rule as the data show it: active = GI50 up to about 1.1 µM and inactive = higher.
Outcome codes: active, inactive

compound | cat
Cc1nn(-c2cc(Cl)ccc2[N+](=O)[O-])c(C)c1Cl | inactive
N=C(N)N/N=C/c1c(-c2ccccc2[N+](=O)[O-])nc2sccn12 | inactive
O=c1[nH]nc(Cc2ccccc2)n1/N=C/c1ccco1 | inactive
COc1nc(N)c(/N=C/C(OC(C)=O)C(OC(C)=O)C(COC(C)=O)OC(C)=O)c(=O)n1C (centres undefined) | inactive
CC1CC2OC(=O)CC2C[C@@H]1O[Si](C)(C)C(C)(C)C (some centres undefined) | inactive
CC(C)=CC(=O)c1c(C(=O)O)nc2ccccc2[n+]1[O-] | inactive
O=C1OCN(c2ccccc2)C12CCN(Cc1ccccc1)CC2 | inactive
COc1ccc(C2SC(=N)Nc3c2c(C)nn3C(=O)c2ccncc2)cc1OC (centres undefined) | inactive
COc1cc(/C=C\c2ccccc2)cc(OC)c1OC | inactive
Fc1ccc(C(OCCN2CCC3CCC(C2)N3C/C=C/c2cccs2)c2ccc(F)cc2)cc1 (centres undefined) | inactive
COC(=O)c1ccc(C(=O)NC(Cc2ccc(Oc3cc(CC(NC(=O)c4ccccc4C(=O)OC)C(=O)OC)ccc3OC)cc2)C(=O)OC)cc1 (centres undefined) | inactive
CSc1ccc(/C=C/c2ccnc3ccccc23)cc1 | inactive
CSc1nc(NC2OC(COC(C)=O)C(OC(C)=O)C(OC(C)=O)C2OC(C)=O)c2c(n1)OCC2=O (centres undefined) | inactive
O=C(Cc1ccccc1)NN1C(=O)/C(=C\c2cccc([N+](=O)[O-])c2)S/C1=N\c1ccccc1 | inactive
CSC1NC=Nc2c1sc(=S)n2-c1ccccc1 (centres undefined) | inactive
CCC1=CC2CC(C(=O)OC)C1(N(C)C)C2=O (centres undefined) | inactive
COc1cc2c(cc1C1=NC(C)(C)CO1)OCO2 | inactive
Cc1[nH]c(=O)nc(NCCNCCO)c1C(=O)Nc1c2ccccc2nc2ccccc12 | inactive
CCCCCCCCCCCCNC1(C)CNCCCNCCNCCCNC1 | inactive
CCCCCCCCCCCCCCCCCC(=O)NCC(COP(=O)(O)O)OCC (centres undefined) | inactive
CC(=O)OCC(=O)OC[C@H](OCc1ccccc1)[C@@H]1[C@H](OC(C)=O)C(=O)N1Cc1ccccc1 | inactive
CC(=O)O[C@H]1CC[C@H]2[C@@H]3CCC4=C(C(=O)C=CC4(C)OC(C)=O)[C@H]3CC[C@]12C (some centres undefined) | inactive
COc1cc(C(=O)CBr)c(OC)cc1C | inactive
Cc1ccc(SCC(CSCCO)OCn2cnc3c2N=C(N)NC32OCCO2)cc1 (centres undefined) | inactive
COC1CC2CCC(C)[C@](O)(O2)C(=O)C(=O)N2CCCCC2C(=O)OC(C(C)CC2CCC(O)C(OC)C2)CC(=O)C(C)C=C(C)C(OC(=O)CN(C)C)C(OC)C(=O)C(C)CC(C)/C=C/C=C/C=C\1C (some centres undefined) | active
COc1cc(/C=C2\N=C(c3ccccc3)N(c3nc4c(Cl)cc(Cl)cc4s3)C2=O)ccc1O | inactive
COc1ccc(/C(=N/NC(=O)NN)C(c2ccc(OC)cc2)C2(O)CNc3c(Cl)cc(Cl)cc32)cc1 (centres undefined) | inactive
Cc1cccc(C)c1NC(=O)C(=O)C(c1ccccc1Cl)S(=O)(=O)Cc1ccccc1Cl (centres undefined) | inactive
NCC[Se][Se]CCN | inactive

====

Tested on: BT-549
method: NCI tumour cell line growth inhibition, 48 h
Activity calls are given as the source filed them. No stated cut-off is given here; in the data, active = GI50 up to about 1.1 µM and inactive = higher.

compound | GI50
Oc1ccccc1/C=N/c1ccc(Oc2ccc(Cl)cc2)c(Cl)c1 | 15.8 µM (inactive)
CN(CCCNC(=O)c1c2ccc3ccccc3c2nn1C)CCCNC(=O)c1c2ccc3ccccc3c2nn1C | 10.6 µM (inactive)
N#CCCSC(=S)C1CCCC1=N (stereo not given) | > 100 µM (inactive)
CN1CCN(C(=O)CCNC(=O)Cc2ccc(C(=O)c3ccccc3)cc2)CC1 | 64.3 µM (inactive)
CC(=O)OCC1=CC2OC(=O)C3=COC(OC4OC(CO)C(O)C(O)C4O)C1C32 (stereo not given) | > 100 µM (inactive)
CNc1ccc(OC)cc1S(=O)(=O)c1ccccc1[N+](=O)[O-] | 75.2 µM (inactive)
CC(C)(Br)C(=O)N1CCN(C(c2ccccc2)c2ccccc2)CC1 | > 100 µM (inactive)
CC1(C)OC[C@@]2([C@@H]3CC[C@@H](C3)C2(C)C)N1O | > 100 µM (inactive)
C1=CCC[C@@H]2CN3CCCC/C=C\CCCC[C@H]4C[C@H](CN(CCCCCCCC1)C4)[C@H]2CC3 | 12.9 µM (inactive)
N#CC(NNC(=O)Cc1ccccc1)c1c(O)ccc2ccccc12 (stereo not given) | 1.73 µM (inactive)

====

Tested on: DMS-114
method: NCI tumour cell line growth inhibition, 48 h
Active and inactive are the calls of the source. Rule as the data show it: active = GI50 up to about 1.1 µM and inactive = higher.

compound | GI50
N#CC1(Cc2ccccc2)CCCCN1C(=O)c1ccccc1 (stereo unspecified) | > 100 µM (inactive)
CCOc1ccc(NC(=O)CC2Sc3ccccc3NC2=O)cc1 (stereo unspecified) | > 100 µM (inactive)
c1coc(CNc2[nH]cnc3nncc2-3)c1 | 44.5 µM (inactive)
O=C1NCCS(=O)(=O)N[C@@H](CC2=CC=CCC2)C(=O)N2CCCC12 (stereo partly specified) | > 100 µM (inactive)
CCCCOP1(=O)C=C(C)C(=C(Cl)Cl)C(C)=C1 (stereo unspecified) | 3.48 µM (inactive)
CCCCCCCC(=O)OC(CBr)COC(=O)C(C)(C)C (stereo unspecified) | > 77.1 µM (inactive)
O=C1C=C(Nc2ccccc2C(=O)CC(=O)C(=O)Nc2cccc([N+](=O)[O-])c2)c2ccccc2C1=O | 18.5 µM (inactive)
OC1(C23CC4CC(CC(C4)C2)C3)CSCC1(O)C12CC3CC(CC(C3)C1)C2 (stereo unspecified) | > 100 µM (inactive)
COC(=O)/C(=C/CC(N=C(c1ccccc1)c1ccccc1)C(=O)OC)N=C(c1ccccc1)c1ccccc1 (stereo unspecified) | 15.1 µM (inactive)
Cc1cc2c(=O)c3ccccc3[nH]c2c(C(N)=O)c1C | > 100 µM (inactive)
CC1OC(n2cc(F)c(=O)[nH]c2=O)CCC1=O (stereo unspecified) | > 100 µM (inactive)
